# pIC50 annotations
# Target under test: D816V KIT (Homo sapiens (Human), UniProt P10721, D816V)
# Sequence (P10721 26-976 D816V): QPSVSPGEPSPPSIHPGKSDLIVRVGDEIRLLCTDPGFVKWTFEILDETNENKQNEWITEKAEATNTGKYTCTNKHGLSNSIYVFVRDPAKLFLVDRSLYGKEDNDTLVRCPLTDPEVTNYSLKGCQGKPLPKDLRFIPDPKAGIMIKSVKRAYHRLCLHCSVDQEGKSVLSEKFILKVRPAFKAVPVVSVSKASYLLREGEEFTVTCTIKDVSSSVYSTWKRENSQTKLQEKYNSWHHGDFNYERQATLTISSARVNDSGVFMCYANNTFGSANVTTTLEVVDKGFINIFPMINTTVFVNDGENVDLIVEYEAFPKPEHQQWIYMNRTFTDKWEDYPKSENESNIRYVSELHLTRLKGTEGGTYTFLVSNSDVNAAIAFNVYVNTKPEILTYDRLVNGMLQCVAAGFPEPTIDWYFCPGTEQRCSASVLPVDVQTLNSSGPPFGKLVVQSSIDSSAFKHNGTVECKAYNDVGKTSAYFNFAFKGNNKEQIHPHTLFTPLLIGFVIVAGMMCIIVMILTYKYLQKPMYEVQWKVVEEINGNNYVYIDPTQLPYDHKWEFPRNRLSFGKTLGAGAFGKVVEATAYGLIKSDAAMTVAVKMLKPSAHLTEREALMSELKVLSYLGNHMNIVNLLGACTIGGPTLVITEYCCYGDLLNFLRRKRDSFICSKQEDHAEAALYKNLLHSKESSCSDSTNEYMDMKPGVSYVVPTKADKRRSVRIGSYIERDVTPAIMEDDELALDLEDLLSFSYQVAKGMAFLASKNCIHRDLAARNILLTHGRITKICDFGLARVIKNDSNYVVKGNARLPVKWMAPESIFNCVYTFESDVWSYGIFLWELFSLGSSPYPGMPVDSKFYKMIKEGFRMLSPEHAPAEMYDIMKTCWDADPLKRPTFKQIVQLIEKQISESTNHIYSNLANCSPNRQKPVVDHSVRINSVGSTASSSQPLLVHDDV
# Assay: KIT D816V assay at Km (Caliper electrophoretic mobility shift)
# Experimental context: biochemical, 15 uM ATP (Km), 90 minutes at 25 C; read-out: INH KIT D816V
pIC50: −log10 of the molar value.

Some entries whose results are on file:
[[record]]
compound = "C[C@@H]1CN(c2ncnn3cc(-c4cnn(C)c4)cc23)CCN1c1ncc([C@](C)(O)c2ccc(F)cc2)cn1"
readout_value = "8.00 to 9.00"

[[record]]
compound = "Cn1cc(-c2cc3c(N4CCN(c5ncc([C@](C)(N)c6ccc(F)cc6F)cn5)CC4)ncnn3c2)cn1"
readout_value = "> 9.00"

[[record]]
compound = "C[C@@H]1CN(c2ncnn3cc(-c4cnn(C)c4)cc23)CCN1c1ncc(Cc2ccccc2)cn1"
readout_value = "8.00 to 9.00"


Query :: Report pIC50 for Cn1cc(-c2cc3c(N4CCN(c5ncc([C@](O)(CF)c6ccc(F)cc6)cn5)CC4)ncnn3c2)cn1 please.
Result :: > 9.00

Query :: Report pIC50 for Cn1cc(-c2cc3c(N4CCN(c5ncc([C@@](C)(O)c6ccc(F)cn6)cn5)CC4)ncnn3c2)cn1 please.
Result :: 8.00 to 9.00

Query :: Report pIC50 for Cn1cc(-c2cc3c(N4CCN(c5ncc([C@@](C)(O)c6ccccc6)cn5)CC4)ncnn3c2)cn1 please.
Result :: > 9.00

Query :: Report pIC50 for Cn1cc(-c2cc3c(N4CCN(c5ncc([C@](C)(O)c6ccc(F)cc6)cn5)CC4)ncnn3c2)cn1 please.
Result :: > 9.00

Query :: Report pIC50 for Cn1cc(-c2cc3c(N4CCN(c5ncc(Sc6ccccc6F)cn5)[C@H](CO)C4)ncnn3c2)cn1 please.
Result :: 8.00 to 9.00

Query :: Report pIC50 for Cn1cc(-c2cc3c(N4CCN(c5ccc(C(O)c6ccccc6)cn5)CC4)ncnn3c2)cn1 (centres unmarked) please.
Result :: 8.00 to 9.00
